Recorded values, source patent US20250161317A1.

- assay-info: Plasma pharmacokinetics after repeated once daily oral dosing of 2.5% (m/v) oily suspension
- Type: in vivo, cat
- experimental-setup: both sexes, plasma, po, 4.8 mg/kg, last (6th) dose, 4.8 mg molidustat sodium per kg once daily oral, geometric mean (CV)
measured-quantity: Tmax (min)
Form entry: value (min) — number only.

Output measured Tmax for this item: O=c1c(-n2ccnn2)c[nH]n1-c1cc(N2CCOCC2)ncn1 [molidustat] 56.4

* * *

- assay-info: Plasma pharmacokinetic study after single oral administration to fasted and fed cats
- Format: in vivo, cat
- experimental-setup: female, European Shorthaired, plasma, po, 3 mg/kg, oral to fed cats, 3.0 mg molidustat sodium per kg, geometric mean
measured-quantity: AUC(0-t)
Write the figure, then the unit, nothing else.

Output measured AUC(0-t) for this item: O=c1c(-n2ccnn2)c[nH]n1-c1cc(N2CCOCC2)ncn1 6280 ng·h/mL
